# System: SW-620 colon
# test.method.notes: NCI-60 one-dose screen, 48 h
# details: 10 µM unless noted
Compounds without any hit were thinned out: in the full panel of roughly 83,000, 20% have a hit. Activity calls are given as the source filed them. How the source made its calls: active means growth percent below 10; inactive means the rest.
Outcomes: active, inactive

> print(dat)
                                    compound  assigned.label
 1  COc1ccc(C(=O)COc2cccc(/C=C3\CSc4ccc(Cl)cc4C3=O)c2)cc1          active
 2  Cn1c(N2N=C(c3ccc(Cl)cc3)CC2c2ccccc2)nc(-c2ccccc2)c(C#N)c1=O (centres undefined)        inactive
 3          C1=C(Cc2ccccc2)n2cnc3ncnc(c32)S1        inactive
 4  Cc1ccc(NC(=O)c2sc3nc4c(cc3c2N)C(=O)CCC4)cc1        inactive
 5  COc1ccc(N2CCN(CC(=O)N3CCN(c4nnc(-c5ccccc5)c(-c5ccccc5)n4)CC3)CC2)cc1        inactive
 6                 Nc1ccc2c(c1Br)Cc1ccccc1-2        inactive
 7  COc1cc(OC)c2c(c1Cl)O[C@]1(C2=O)C(OCc2ccccc2)=CC(=O)C[C@H]1C        inactive
 8  O=C(CNC(=O)c1cccc2ccccc12)Nc1ccccc1Oc1cccc(O)c1        inactive
 9  C[C@H]1C(=O)N2c3ccccc3[C@@]3(O)C[C@@H](n4cnc5ccccc5c4=O)C(=O)N1[C@@H]23        inactive
10  Cc1cc(Cl)ccc1Nc1nc(C(F)(F)F)ccc1C(=O)N/N=C/c1ccc(Cl)cc1          active
11     COc1ccc(CCN2C(=O)CCC3=C2CCCC3=O)cc1OC        inactive
12    COc1ccc2nc(N/N=C(\C)c3ccccn3)cc(C)c2c1          active
13  COc1cc2c(cc1OC)C(CC1(O)CCCCC1)N(S(=O)(=O)c1ccc(C)cc1)CC2 (centres undefined)        inactive
14  Fc1ccccc1C1c2ccccc2-c2nccn21 (centres undefined)        inactive
15     CCSc1nc(-c2ccc(F)cc2)c(C#N)c(=O)[nH]1        inactive
16  COP(=O)(OC)C(c1ccccc1)(c1ccccc1)c1ccccc1        inactive
17          Cc1cnc2nc(-c3ccc(N(C)C)cc3)cn2c1        inactive
18  CC12CCC3C(=CCc4cc(O)ccc43)C1CCC2=O (centres undefined)        inactive
19  NC(=O)NS(=O)(=O)c1ccc(N2N=C(C(F)(F)F)CC2c2cc(C(F)(F)F)cc(C(F)(F)F)c2)cc1 (centres undefined)        inactive

---

growth by entry:
# System: UACC-257 melanoma
# test.method.notes: NCI-60 one-dose screen, 48 h (100 = growth as untreated, 0 = no growth, -100 = all killed)
# details: 10 µM unless noted
# Experimental: Cells are grown in 96 well plates and exposed to the test compound for 48 hours. Compounds are tested at a single concentration, which is 10^-5 M for most compounds. The reported endpoint is percent growth (GI% or GIPRCNT), where numbers from 0 - 100% represent growth inhibition, and numbers from -100% - 0 represent cell death. For example, a value of 40 represents 60% growth inhibition. A value of 0 means no net growth occurred over the course of the experiment. […]
About 83,000 compounds went through this panel and 20% of them were active in at least one assay; those are over-represented in the sample as a whole. Activity calls are given as the source filed them. The calls were made as follows: active = growth percent below 10; inactive = the rest.

molecule	growth
Clc1ccc2nc(CI)c(CI)nc2c1	86.2% (inactive)
CN1C(=O)C(C2=NN(C=O)C(c3ccc(F)cc3)C2)C(=O)N(C)C1=O (stereo not drawn)	69.3% (inactive)
O=C1/C(=C/c2ccccc2O)C(=S)SN1Cc1ccco1	99.1% (inactive)
C/C(=C\CCc1ccoc1)CC/C=C(\C)CCCNc1ccc(F)cc1	99.7% (inactive)
COC(=O)C1CCN(S(=O)(=O)c2ccc(-c3ccccc3)cc2)CC1	62.7% (inactive)
COc1cc2c(cc1OC)C(CC1(O)CCCCC1)N(S(=O)(=O)c1ccc(C)cc1)CC2 (stereo not drawn)	22.4% [100 µM] (inactive)
N#Cc1ccc(-c2csc(Nc3ccc4nc5n(c(=O)c4c3)CCC5)n2)cc1	108% (inactive)
CCCc1n(Cc2ccc3ccccc3c2)cc[n+]1Cc1ccc2ccccc2c1	-33.6% (active)
CC(C)=CCCC(C)c1ccc(C)c2c1OCN(CC1CCNCC1)C2 (stereo not drawn)	24.6% (inactive)
O=C(NN1C(=O)c2cc(C(=O)O)c(C(=O)O)cc2C1=O)c1ccncc1	114% (inactive)
COc1ccc(-c2nc3sc4c(c3c(=O)[nH]2)CCCCCC4)cc1	64% (inactive)
N/C(=N\C(N)=N\c1nc2ccccc2s1)c1ccnc(Cl)c1	74.4% (inactive)
O=C(c1ccc(N2CCOCC2)cc1[N+](=O)[O-])N1CCOCC1	43.9% (inactive)
COc1ccc(Cl)cc1Nc1nc(C(F)(F)F)ccc1C(=O)N/N=C/c1c(Cl)cccc1Cl	60.9% (inactive)
O=C1/C=C/[C@@H](O)[C@@H]2C[C@@H](O)C[C@H]2/C=C/CCC[C@H](CO)O1	29.9% (inactive)
c1ccc(CN=C(NCc2ccccc2)NCc2ccccc2)cc1	-13.2% (active)
NC(=NCCCCCCN=C(N)/N=C(\N)Nc1ccc(Cl)cc1)/N=C(\N)Nc1ccc(Cl)cc1	33.7% (inactive)
C[C@H]1O[C@@H](O[C@H]2[C@@H](O)C[C@H](O[C@H]3[C@@H](O)C[C@H](O[C@H]4CC[C@]5(C)C6C[C@@H](O)[C@]7(C)[C@@H](C8=CC(=O)OC8)CC[C@]7(O)C6CC[C@@H]5C4)O[C@@H]3C)O[C@@H]2C)C[C@H](O)[C@@H]1O (stereo partly drawn)	-100% (active)

Each recorded value in this set is attributed to PubChem BioAssay (NCI).
